Cited source: the supplement of paper PMC6555819

tested on: PPARg:RXRa (NR concentration 180 nM, RXRa partner concentration 90 nM); assay: PBM binding z-score (relative to random genomic background probes); higher = stronger binding; sequences stand for … in GC…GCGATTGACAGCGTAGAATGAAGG
The threshold is inclusive: PBM binding z-score of exactly 1 counts as 1; values below receive 0.

**Q:** Check the entry TCTCCGAGGACACGAAAGGTCAGAGCTCGACATC : does PBM binding z-score equal or exceed 1?
**A:** 1

**Q:** Given the entry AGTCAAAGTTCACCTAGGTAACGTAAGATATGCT , answer whether its PBM binding z-score meets or surpasses 1.
**A:** 1

**Q:** Would you say CCTATTAGTTGACCATAAGAGCAACCGAAGCTCG shows PBM binding z-score at minimum 1?
**A:** 0

**Q:** Confirm if PBM binding z-score reported for the sequence ATCGAAAGCTCGAGGTGAGTATAGAGAAAGGGAA is 1 or above.
**A:** 0

----------
tested on: PPARg:RXRa 90nM:30nM, anti-RXR (NR concentration 90 nM, RXRa partner concentration 30 nM); test: PBM binding z-score (relative to random genomic background probes); higher = stronger binding; sequences stand for … in GC…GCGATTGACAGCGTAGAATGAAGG
VALUE TYPE: PBM binding z-score
// no unit, no text: just the number

Record excerpt, results attached:
[
  {
    "SEQUENCE CONTENT": "CGAACTAGGTCATCCAGTACAGTGAATACATTGA",
    "PBM binding z-score": 5.81
  },
  {
    "SEQUENCE CONTENT": "GCTAGCAGGCCATTTGGGTCACTCACTGACGGGC",
    "PBM binding z-score": 0.202
  },
  {
    "SEQUENCE CONTENT": "AGTCAAAGTTCAGGACGAGGGAACGTAAAGCACG",
    "PBM binding z-score": 3.87
  }
]

**Q:** Reported PBM binding z-score for CCGATTAGTTGACCATAAGGGCAACCGAAGCTCG : what is it?
**A:** 0.0545

**Q:** Please look up its PBM binding z-score: AGAATGAGGTTAAGATCAGGGGAACAGAATACAT
**A:** 1.88

**Q:** Give its PBM binding z-score value. Item: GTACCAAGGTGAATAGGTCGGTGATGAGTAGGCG
**A:** 0.711

**Q:** Reported PBM binding z-score for ATCTCTGGGTAAAGTTCAGTGAAAGATCGATAGA : what is it?
**A:** 4.78

**Q:** Name the reported PBM binding z-score value associated with the sequence CCAGACAGGCGAGAAGGTAACTCAGCCTCGATTA
**A:** -0.947

**Q:** Given CGAACTAGGTCAAAGACAGTGAATCTCCGCACGC , state its recorded PBM binding z-score.
**A:** 6.21

**Q:** Which PBM binding z-score is reported for this sequence? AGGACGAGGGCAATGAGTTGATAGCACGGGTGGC
**A:** -0.187

**Q:** Entry CGTCCAAGGTCAATGCTACGTCAGTGAAAGCATT has what PBM binding z-score?
**A:** 3.3

**Q:** Need PBM binding z-score of CTACCAAGGTGAACAGGGTCGTTGATTACTATTC , thanks.
**A:** 0.997

**Q:** What value of measured PBM binding z-score is listed for CGTACTGGGCCACGAAAGGTCATTGATTCAGTGA ?
**A:** 4.16

**Q:** Form field: reported PBM binding z-score of AGTCAAAGTACACTAGGTAACGTAAGATTCAGCT
**A:** 0.295
